B1: Fatty acid-binding protein, intestinal, P02693 (parent)
chain: MAFDGTWKVDRNENYEKFMEKMGINVVKRKLGAHDNLKLTITQEGNKFTVKESSNFRNIDVVFELGVDFAYSLADGTELTGTWTMEGNKLVGKFKRVDNGKELIAVREISGNELIQTYTYEGVEAKRIFKKE

Variants of: B1
TEST_CONDITIONS: Rattus norvegicus; pH 7.3; 20 °C; GdnHCl; Fluorescence; potassium phosphate 20 mM; structure 1IFB; whole UniProt chain shown
Listing of recorded unfolding free energy by entry.
Provide only the numeric value, understood in kcal/mol.

G100P; 3.5
G66P; 2.5
G111P; 5
G45P; 3.1

Now for the variant whose unfolding free energy we want.
So what's the measured unfolding free energy for this one? "G122P"
1.2
